Reported viability, T/C is given for each of the following molecules.
tested on: 624824-186-R-J3-PDC multicell spheroids, viability; experiment: Anticancer human tumor 624824-186-R-J3-PDC patient-derived colon adenocarcinoma cell line growth inhibition [PI3K]; conditions: second compound 0.00316 µM; first compound 1 µM; stronger effect = lower value
Write the answer as a number in %, unit excluded.

Recorded results for 2 molecules are shown here.
>>> reportedresult("C#Cc1c(F)ccc2cc(O)cc(-c3ncc4c(N5CC6CCC(C5)N6)nc(OCC56CCCN5CC(F)C6)nc4c3F)c12 (stereo not drawn) + CC(Nc1ccc2c(c1)OCCn1cc(N3C(=O)OCC3C(F)F)nc1-2)C(N)=O")
108
>>> reportedresult("CC(Cn1ccc(-c2ccc(C#N)c(Cl)c2)n1)NC(=O)c1cc(C(C)O)[nH]n1 (stereo not drawn) + COc1c(OCCCN2CCOCC2)ccc2c3n(c(=NC(=O)c4cnc(N)nc4)nc12)CCN3")
96.3

Pending molecule:
QUERY: Item CC(Cn1ccc(-c2ccc(C#N)c(Cl)c2)n1)NC(=O)c1cc(C(C)O)[nH]n1 (stereo not drawn) + CC(Nc1ccc2c(c1)OCCn1cc(N3C(=O)OCC3C(F)F)nc1-2)C(N)=O has what recorded viability, T/C?
RESULT: 92.7

---

tested on: 624824-186-R-J3-PDC multicell spheroids, viability; test: Anticancer human tumor 624824-186-R-J3-PDC cell line growth inhibition [PI3K]; settings: second compound 3.16 µM; first compound 1 µM; stronger effect = lower value;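 note: spheroids exposed to agents for seven days before luminescence read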;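 for viability, T/C: luminescent signal used as a stand-in for spheroid viability; percent viability relative to DMSO vehicle control wells taken as 100%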
Reported viability, T/C is given for each of the following compounds.
Write the answer as a number in %, unit excluded.

Recorded results for 2 compounds are shown here.
>>> reportedresult("CCN1CCN(Cc2ccc(Nc3ncc(F)c(-c4cc(F)c5nc(C)n(C(C)C)c5c4)n3)nc2)CC1 + Cc1nc(NC(=O)N2CCCC2C(N)=O)sc1-c1ccnc(C(C)(C)C(F)(F)F)c1")
51.6
>>> reportedresult("CNC(=O)c1ccc(N2C(=S)N(c3ccc(C#N)c(C(F)(F)F)c3)C(=O)C2(C)C)cc1F + Cc1nc(NC(=O)N2CCCC2C(N)=O)sc1-c1ccnc(C(C)(C)C(F)(F)F)c1")
77.7

Pending compound:
QUERY: For the record CC(C)NCC(C(=O)N1CCN(c2ncnc3c2C(C)CC3O)CC1)c1ccc(Cl)cc1 (stereo not drawn) + Cc1nc(NC(=O)N2CCCC2C(N)=O)sc1-c1ccnc(C(C)(C)C(F)(F)F)c1 , what value of viability, T/C is listed for 624824-186-R-J3-PDC multicell spheroids, viability?
RESULT: 59

---

Reported IC50 is given for each of the following compounds.
test system: 624824-186-R-J3-PDC multicell spheroids, viability; experiment: Anticancer human tumor 624824-186-R-J3-PDC cell line growth inhibition [PI3K]; conditions: curve of compound;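 note: spheroids exposed to agents for seven days before luminescence read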

>>> reportedresult("CCCS(=O)(=O)Nc1ccc(F)c(C(=O)c2c[nH]c3ncc(-c4ccc(Cl)cc4)cc23)c1F")
"5.47 µM [middle of 4 runs]"
>>> reportedresult("C[C@@H](NC(=O)c1ncnc(N)c1Cl)c1ncc(C(=O)Nc2cc(C(F)(F)F)c(Cl)cn2)s1")
"> 10 µM"
>>> reportedresult("Cn1ncnc1[C@H]1c2n[nH]c(=O)c3cc(F)cc(c23)N[C@@H]1c1ccc(F)cc1")
"> 0.1 µM"
>>> reportedresult("C#Cc1c(F)ccc2cc(O)cc(-c3ncc4c(N5CC6CCC(C5)N6)nc(OCC56CCCN5CC(F)C6)nc4c3F)c12 (configuration not stated)")
"> 10 µM"
>>> reportedresult("CNC(=O)c1ccc(N2C(=S)N(c3ccc(C#N)c(C(F)(F)F)c3)C(=O)C2(C)C)cc1F")
"> 10 µM"
>>> reportedresult("CCN1CCN(Cc2ccc(Nc3ncc(F)c(-c4cc(F)c5nc(C)n(C(C)C)c5c4)n3)nc2)CC1")
"> 1 µM"

Pending compound:
QUERY: Item CC1(C)CCC(Nc2ncc(C(F)(F)F)c(-c3c[nH]c4c(P(C)(C)=O)c(C#N)ccc34)n2)CN1 (configuration not stated) has what recorded IC50?
RESULT: 5.64 µM [middle of 4 runs]

---

Tested on: 624824-186-R-J3-PDC multicell spheroids, viability
Experiment: Anticancer human tumor 624824-186-R-J3-PDC cell line growth inhibition [PI3K];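 note: spheroids exposed to agents for seven days before luminescence read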;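 for viability, T/C: luminescent signal used as a stand-in for spheroid viability; percent viability relative to DMSO vehicle control wells taken as 100%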
Conditions: second compound 0.01 µM; first compound 3.16 µM; stronger effect = lower value
Excerpt: Combinatorial screen of targeted agents with the PI3K inhibitors inavolisib, alpelisib, duvelisib, and copanlisib in multi-cell type tumor spheroids A high-throughput screen of multi-cell type tumor spheroids was designed to identify active combinations of targeted small molecules and PI3K pathway inhibitors. […] Compounds. […] If the clinical Cmax for an agent had not been determined, the highest concentration tested was 10 microM. […]
observationType: viability, T/C (%)
Write the answer as a number in %, unit excluded.

Recorded results for 6 molecules are shown here.
>>> reportedresult("Cn1nccc1Nc1nccc(-c2ccn(C(CO)c3ccc(Cl)c(F)c3)c(=O)c2)n1 (stereo unspecified) + CC(Nc1ccc2c(c1)OCCn1cc(N3C(=O)OCC3C(F)F)nc1-2)C(N)=O")
54.9
>>> reportedresult("C[C@@H](NC(=O)c1ncnc(N)c1Cl)c1ncc(C(=O)Nc2cc(C(F)(F)F)c(Cl)cn2)s1 + COc1c(OCCCN2CCOCC2)ccc2c3n(c(=NC(=O)c4cnc(N)nc4)nc12)CCN3")
92.5
>>> reportedresult("C=CC(=O)N1CCN(c2nc(=O)n(-c3c(C)ccnc3C(C)C)c3nc(-c4c(O)cccc4F)c(F)cc23)C(C)C1 (stereo unspecified) + COc1c(OCCCN2CCOCC2)ccc2c3n(c(=NC(=O)c4cnc(N)nc4)nc12)CCN3")
97.7
>>> reportedresult("CNC(=O)c1ccc(N2C(=S)N(c3ccc(C#N)c(C(F)(F)F)c3)C(=O)C2(C)C)cc1F + COc1c(OCCCN2CCOCC2)ccc2c3n(c(=NC(=O)c4cnc(N)nc4)nc12)CCN3")
104
>>> reportedresult("CC1(C)CCC(Nc2ncc(C(F)(F)F)c(-c3c[nH]c4c(P(C)(C)=O)c(C#N)ccc34)n2)CN1 (stereo unspecified) + COc1c(OCCCN2CCOCC2)ccc2c3n(c(=NC(=O)c4cnc(N)nc4)nc12)CCN3")
89.5
>>> reportedresult("C#Cc1c(F)ccc2cc(O)cc(-c3ncc4c(N5CC6CCC(C5)N6)nc(OCC56CCCN5CC(F)C6)nc4c3F)c12 (stereo unspecified) + COc1c(OCCCN2CCOCC2)ccc2c3n(c(=NC(=O)c4cnc(N)nc4)nc12)CCN3")
103

QUERY: Item CC(Cn1ccc(-c2ccc(C#N)c(Cl)c2)n1)NC(=O)c1cc(C(C)O)[nH]n1 (stereo unspecified) + COc1c(OCCCN2CCOCC2)ccc2c3n(c(=NC(=O)c4cnc(N)nc4)nc12)CCN3 has what recorded viability, T/C?
RESULT: 108

QUERY: Repeat for the following molecule: CC(C)NCC(C(=O)N1CCN(c2ncnc3c2C(C)CC3O)CC1)c1ccc(Cl)cc1 (stereo unspecified) + COc1c(OCCCN2CCOCC2)ccc2c3n(c(=NC(=O)c4cnc(N)nc4)nc12)CCN3
RESULT: 64.5

QUERY: Repeat for the following molecule: CNC(=O)c1ccc(N2C(=S)N(c3ccc(C#N)c(C(F)(F)F)c3)C(=O)C2(C)C)cc1F + CC(Nc1ccc2c(c1)OCCn1cc(N3C(=O)OCC3C(F)F)nc1-2)C(N)=O
RESULT: 96.1

QUERY: Repeat for the following molecule: CCCS(=O)(=O)Nc1ccc(F)c(C(=O)c2c[nH]c3ncc(-c4ccc(Cl)cc4)cc23)c1F + COc1c(OCCCN2CCOCC2)ccc2c3n(c(=NC(=O)c4cnc(N)nc4)nc12)CCN3
RESULT: 61.5

QUERY: Repeat for the following molecule: Cn1ncc(Cl)c1-c1cc(C(=O)NC(CN)Cc2cccc(F)c2)sc1Cl (stereo unspecified) + CC(Nc1ccc2c(c1)OCCn1cc(N3C(=O)OCC3C(F)F)nc1-2)C(N)=O
RESULT: 52.4

---

test system: 624824-186-R-J3-PDC multicell spheroids, viability; test: Anticancer human tumor 624824-186-R-J3-PDC cell line growth inhibition [PI3K]; conditions: second compound 0.1 µM; first compound 10 µM; stronger effect = lower value;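 note: spheroids exposed to agents for seven days before luminescence read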;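 for viability, T/C: luminescent signal used as a stand-in for spheroid viability; percent viability relative to DMSO vehicle control wells taken as 100%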
Reported viability, T/C is given for each of the following molecules.
Write the answer as a number in %, unit excluded.

>>> reportedresult("CC1(C)CCC(CN2CCN(c3ccc(C(=O)NS(=O)(=O)c4ccc(NCC5CCOCC5)c([N+](=O)[O-])c4)c(Oc4cnc5[nH]ccc5c4)c3)CC2)=C(c2ccc(Cl)cc2)C1 + Cc1nc(NC(=O)N2CCCC2C(N)=O)sc1-c1ccnc(C(C)(C)C(F)(F)F)c1")
46.9

Pending molecule:
QUERY: For the record CC1(C)CCC(CN2CCN(c3ccc(C(=O)NS(=O)(=O)c4ccc(NCC5CCOCC5)c([N+](=O)[O-])c4)c(Oc4cnc5[nH]ccc5c4)c3)CC2)=C(c2ccc(Cl)cc2)C1 + CC(Nc1ncnc2nc[nH]c12)c1cc2cccc(Cl)c2c(=O)n1-c1ccccc1 , what value of viability, T/C is listed for 624824-186-R-J3-PDC multicell spheroids, viability?
RESULT: 32.5
